Values were extracted from patent US10988477B2.

Would you mind telling me the reported pIC50 of each entry?
biological target: intracellular GCN2 (phosphorylation of the GCN2 substrate eIF2α) (Homo sapiens, UniProt Q9P2K8); assay: GCN2 cellular inhibition assay (AlphaScreen SureFire P-eIF2α Ser51, borrelidin-treated U2OS cells); assay type: cell-based; conditions: compounds of Formula III; U2OS cells, 10 μM borrelidin, 1 h; read-out: GCN2 Biomarker (IC50)
Sequence (Q9P2K8 whole entry): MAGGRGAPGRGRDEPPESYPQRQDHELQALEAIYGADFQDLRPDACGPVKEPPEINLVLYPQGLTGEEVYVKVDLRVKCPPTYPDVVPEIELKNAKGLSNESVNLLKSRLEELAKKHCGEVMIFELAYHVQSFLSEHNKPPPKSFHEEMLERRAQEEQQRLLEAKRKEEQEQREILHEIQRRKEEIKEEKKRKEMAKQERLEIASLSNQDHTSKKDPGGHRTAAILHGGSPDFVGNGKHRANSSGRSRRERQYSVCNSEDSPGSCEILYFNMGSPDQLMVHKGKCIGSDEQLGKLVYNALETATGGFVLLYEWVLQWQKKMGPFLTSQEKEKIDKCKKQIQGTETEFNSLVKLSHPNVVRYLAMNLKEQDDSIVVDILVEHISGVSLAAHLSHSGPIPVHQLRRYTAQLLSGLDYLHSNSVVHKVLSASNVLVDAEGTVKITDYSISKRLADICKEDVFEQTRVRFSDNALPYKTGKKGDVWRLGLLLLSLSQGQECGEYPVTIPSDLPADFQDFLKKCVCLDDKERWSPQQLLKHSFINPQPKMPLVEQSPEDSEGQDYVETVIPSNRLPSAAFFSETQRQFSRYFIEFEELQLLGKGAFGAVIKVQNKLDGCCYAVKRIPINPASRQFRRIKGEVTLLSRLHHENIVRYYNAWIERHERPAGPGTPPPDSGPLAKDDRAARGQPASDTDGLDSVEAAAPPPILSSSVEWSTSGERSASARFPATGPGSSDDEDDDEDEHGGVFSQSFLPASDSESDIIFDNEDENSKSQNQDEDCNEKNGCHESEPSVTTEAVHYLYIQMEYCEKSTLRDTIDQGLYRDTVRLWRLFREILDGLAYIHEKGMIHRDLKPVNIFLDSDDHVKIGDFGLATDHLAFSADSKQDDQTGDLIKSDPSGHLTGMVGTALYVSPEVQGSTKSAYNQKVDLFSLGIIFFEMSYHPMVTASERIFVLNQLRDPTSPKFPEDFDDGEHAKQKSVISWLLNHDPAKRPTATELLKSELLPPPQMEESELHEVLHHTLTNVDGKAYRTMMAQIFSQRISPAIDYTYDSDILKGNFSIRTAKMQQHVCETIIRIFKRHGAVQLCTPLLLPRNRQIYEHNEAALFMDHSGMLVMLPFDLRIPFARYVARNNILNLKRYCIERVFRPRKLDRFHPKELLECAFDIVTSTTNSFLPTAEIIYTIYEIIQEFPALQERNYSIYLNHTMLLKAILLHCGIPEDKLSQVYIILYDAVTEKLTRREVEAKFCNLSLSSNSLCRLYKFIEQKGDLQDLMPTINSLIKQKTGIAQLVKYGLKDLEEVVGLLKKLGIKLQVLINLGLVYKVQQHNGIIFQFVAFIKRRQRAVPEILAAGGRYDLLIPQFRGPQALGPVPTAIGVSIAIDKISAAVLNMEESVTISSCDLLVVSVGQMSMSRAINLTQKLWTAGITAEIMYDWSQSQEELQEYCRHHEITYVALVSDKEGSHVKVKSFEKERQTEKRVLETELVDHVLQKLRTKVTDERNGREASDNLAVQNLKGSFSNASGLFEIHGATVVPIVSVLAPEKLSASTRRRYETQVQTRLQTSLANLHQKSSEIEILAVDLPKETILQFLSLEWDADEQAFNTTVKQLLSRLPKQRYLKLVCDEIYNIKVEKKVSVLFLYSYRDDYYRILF
pIC50: −log10 of the molar value.

Suppose we examine the compound CS(=O)(=O)NCC1CCCN(c2cc(-c3cnn4ccc(C(F)F)nc34)ncn2)C1 (centres unmarked) [III-2] ; what pIC50 value has been reported?
> 6.30

Another compound to look at: O=C1CCN(c2cc(-c3cnn4ccc(C(F)(F)F)nc34)ncn2)CCN1 [III-3]
< 5.30

Another compound to look at: C[C@H]1CN(c2cc(-c3cnn4cc(F)c(C(F)F)nc34)ncn2)C[C@@H](CNS(C)(=O)=O)C1(F)F [III-11]
> 6.30

Another compound to look at: CC(=O)N1CCN(c2cc(-c3cnn4ccc(C(F)F)nc34)ncn2)CC1 [III-1]
< 5.30

Another compound to look at: CS(=O)(=O)NC[C@@H]1CN(c2cc(-c3cnn4ccc(C(F)F)nc34)ccn2)CCO1 [III-6]
5.30 to 6.30

Another compound to look at: O=C1CCCC2CN(c3cc(-c4cnn5cccnc45)ccn3)CCN12 (centres unmarked) [III-16]
< 5.30

Another compound to look at: CS(=O)(=O)NC[C@H]1CN(c2cc(-c3cnn4cc(F)c(C(F)F)nc34)ncn2)CCO1 [III-5]
< 5.30

Another compound to look at: C[C@H]1CN(c2cc(-c3cnn4ccc(C(F)F)nc34)ncn2)C[C@@H](CNS(C)(=O)=O)C1(F)F [III-12]
> 6.30

* * *

target: intracellular GCN2 (phosphorylation of the GCN2 substrate eIF2α) (Homo sapiens, UniProt Q9P2K8); assay: GCN2 cellular inhibition assay (AlphaScreen SureFire P-eIF2α Ser51, borrelidin-treated U2OS cells); format: cell-based; details: compounds of Formula II; biomarker assay, phosphorylated eIF2α Ser51 in borrelidin-treated U2OS cells
Would you mind telling me the reported IC50 of each entry?

Suppose we examine the compound "CC(=O)N1CCN(c2cc(-c3cnc4ccc(Cl)nn34)ccn2)CC1" ; what IC50 value has been reported?
> 5 µM

Another compound to look at: "CN1C(=O)CN(c2cc(-c3cnc4ccc(C(F)F)nn34)ncn2)C[C@H]1CNS(C)(=O)=O"
> 5 µM

Another compound to look at: CS(=O)(=O)N1CCCC2(CN(c3cc(-c4cnc5ccc(C(F)F)nn45)ncn3)CCO2)C1 (centres unmarked)
> 5 µM

Another compound to look at: OCC1CCCN(c2cc(-c3cnc4ccc(C(F)F)nn34)ccn2)C1 (centres unmarked)
0.5 to 5 µM

Another compound to look at: CS(=O)(=O)NCC1(F)CCCN(c2cc(-c3cnc4ccc(C(F)F)nn34)ccn2)C1 (centres unmarked)
0.5 to 5 µM

* * *

target: GCN2 kinase (Homo sapiens); assay: GCN2 enzyme inhibition assay (Transcreener ADP2 fluorescence polarization); format: biochemical; conditions: Enzyme activity for compounds of Formula IV; Ki(app), 280 μM ATP, 25° C.
Sequence (Q9P2K8 whole entry): as above
Would you mind telling me the reported Ki of each entry?

Suppose we examine the molecule CC1CN(c2ccnc(-c3cnc4cnc(C(F)(F)F)cn34)n2)CC(c2cn[nH]c2)N1 (single isomer, unassigned) [IV-461] ; what Ki value has been reported?
10 to 100 nM

Another molecule to look at: CC(=O)N(C)C1CCN(c2ccnc(-c3cnc4cnc(C(N)=O)cn34)n2)C1 (stereo not drawn) [IV-267]
100 to 1000 nM

Another molecule to look at: CC1C(c2cn[nH]c2)NCCN1c1ccnc(-c2cnc3cnc(Br)cn23)n1 (single isomer, unassigned) [IV-350]
100 to 1000 nM

Another molecule to look at: FC(F)c1cn2c(-c3nccc(N4CCOCC4)n3)cnc2cn1 [IV-104]
100 to 1000 nM

Another molecule to look at: COc1cn2c(-c3nccc(N4CCN(C(C)=O)CC4)n3)cnc2cn1 [IV-25]
100 to 1000 nM

Another molecule to look at: CC1NC(c2cn[nH]c2)C(C)N(c2ccnc(-c3cnc4cnc(C(F)(F)F)cn34)n2)C1C (single isomer, unassigned) [IV-336]
100 to 1000 nM

Another molecule to look at: FC(F)c1cn2c(-c3nccc(N4CCCC5CCCC54)n3)cnc2cn1 (stereo not drawn) [IV-130]
100 to 1000 nM

Another molecule to look at: CC1C(c2cn[nH]c2)OCCN1c1ccnc(-c2cnc3cnc(C(F)(F)F)cn23)n1 (single isomer, unassigned) [IV-315]
10 to 100 nM

Another molecule to look at: COCC1CN(c2ccnc(-c3cnc4cnc(C(F)(F)F)cn34)n2)CC(C)O1 (stereo not drawn) [IV-587]
100 to 1000 nM

Another molecule to look at: NC(C1CCCN(c2ccnc(-c3cnc4cnc(C(F)(F)F)cn34)n2)C1)C(F)(F)F (stereo not drawn) [IV-502]
100 to 1000 nM

Another molecule to look at: CC1CN(c2ccnc(-c3cnc4cnc(C(F)(F)F)cn34)n2)CC(c2cn[nH]c2Cl)N1 (single isomer, unassigned) [IV-652]
10 to 100 nM

Another molecule to look at: CC1CN(c2ccnc(-c3cnc4cnc(C(F)(F)F)cn34)n2)C(C)C(c2c[nH]cn2)O1 (stereo not drawn) [IV-525]
< 10 nM

Another molecule to look at: FC(F)(F)c1cn2c(-c3nccc(N4CC(CN5CCC5)CC(c5cn[nH]c5)C4)n3)cnc2cn1 (stereo not drawn) [IV-681]
10 to 100 nM

Another molecule to look at: FC(F)(F)c1cn2c(-c3nccc(N4CCCC(c5n[nH]c(C6CCCCC6)n5)C4)n3)cnc2cn1 (stereo not drawn) [IV-659]
100 to 1000 nM

Another molecule to look at: CC(=O)N1CCN(c2ccnc(-c3cnc4cnc(C(F)F)cn34)n2)CC1 [IV-22]
100 to 1000 nM

Another molecule to look at: N#Cc1cccc(C(=O)N[C@H]2CCCN(c3ccnc(-c4cnc5cnc(C(F)(F)F)cn45)n3)C2)c1 [IV-741]
> 1000 nM

Another molecule to look at: CS(=O)(=O)C1CCCN(c2ccnc(-c3cnc4cnc(C(F)(F)F)cn34)n2)C1 (stereo not drawn) [IV-483]
100 to 1000 nM

Another molecule to look at: CC1CN(c2nc(-c3cnc4cnc(C(F)(F)F)cn34)ncc2F)C(C)C(c2cn[nH]c2)N1 (single isomer, unassigned) [IV-324]
10 to 100 nM

Another molecule to look at: CC(=O)N1CCN(c2ccnc(-c3cnc4cnc(-c5cccc(CO)c5)cn34)n2)CC1 [IV-308]
100 to 1000 nM

Another molecule to look at: CC(=O)N1CCN(c2ccnc(-c3cnc4cnc(-c5cc[nH]n5)cn34)n2)CC1 [IV-203]
10 to 100 nM

Another molecule to look at: CC1COC(CO)CN1c1ccnc(-c2cnc3cnc(C(F)(F)F)cn23)n1 (stereo not drawn) [IV-613]
100 to 1000 nM

Another molecule to look at: O=C(N[C@H]1CCCN(c2ccnc(-c3cnc4cnc(C(F)(F)F)cn34)n2)C1)C1CC1 [IV-732]
> 1000 nM

Another molecule to look at: OC[C@@H]1CCCN(c2ccnc(-c3cnc4cnc(C(F)F)cn34)n2)C1 [IV-138]
100 to 1000 nM

Another molecule to look at: NC(=O)c1cn2c(-c3nccc(N4CC(=O)N5CCCCC5C4)n3)cnc2cn1 (stereo not drawn) [IV-263]
100 to 1000 nM

Another molecule to look at: NS(=O)(=O)C1CCCN(c2ccnc(-c3cnc4cnc(C(F)F)cn34)n2)C1 (stereo not drawn) [IV-177]
100 to 1000 nM

Another molecule to look at: FC(F)(F)c1cn2c(-c3nccc(N4CCCC(c5ccno5)C4)n3)cnc2cn1 (stereo not drawn) [IV-317]
10 to 100 nM

Another molecule to look at: CC(=O)N1CCN(c2ccnc(-c3cnc4cnc(-c5ccc(C(N)=O)cc5)cn34)n2)CC1 [IV-303]
100 to 1000 nM

Another molecule to look at: NC(=O)c1cn2c(-c3nccc(N4CC5(CCOC5)C4)n3)cnc2cn1 [IV-270]
100 to 1000 nM

Another molecule to look at: FC(F)(F)c1cn2c(-c3nccc(N4CCCC5(CCOC5)C4)n3)cnc2cn1 (stereo not drawn) [IV-496]
100 to 1000 nM

Another molecule to look at: CC1CC(C)C(C)N(c2ccnc(-c3cnc4cnc(C(F)(F)F)cn34)n2)C1 (stereo not drawn) [IV-643]
100 to 1000 nM

Another molecule to look at: NC(=O)C1COCCN(c2ccnc(-c3cnc4cnc(C(F)F)cn34)n2)C1 (stereo not drawn) [IV-128]
100 to 1000 nM

Another molecule to look at: O=C1NCCC12CCCN(c1ccnc(-c3cnc4cnc(C(F)(F)F)cn34)n1)C2 (stereo not drawn) [IV-542]
100 to 1000 nM

Another molecule to look at: CNC(=O)c1cc(C2CCCN(c3ccnc(-c4cnc5cnc(C(F)F)cn45)n3)C2)n[nH]1 (stereo not drawn) [IV-95]
100 to 1000 nM
